Tested on: 699152-130-R-J1-PDC complex spheroid growth;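 further: compound exposure lasted 7 days after spheroids had grown for 3 days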
Assay Name: Anticancer human tumor 699152-130-R-J1-PDC patient-derived pancreatic carcinoma cell line growth inhibition [AhR]
Recorded Conditions: second compound 0.316 µM; first compound 0.316 µM; hits give low values
Consider the following molecules; for each one, report its viability, T/C.

Example cases with answers are listed next.
{"Molecule": "O=C(c1cc(Cc2n[nH]c(=O)c3ccccc23)ccc1F)N1CCN(C(=O)C2CC2)CC1 + CC(CO)NC(=O)c1cc(-c2ccc(Cl)cc2)nn(-c2cnn(C)c2)c1=O", "Readout Kind": "viability, T/C", "Measured Result": "88.8%"}
{"Molecule": "Nc1ccccc1NC(=O)c1ccc(CNC(=O)OCc2cccnc2)cc1 + Cc1cncc(-c2nc(NCCc3c[nH]c4ccccc34)c3ncn(C(C)C)c3n2)c1", "Readout Kind": "viability, T/C", "Measured Result": "105%"}

Let us examine a further case.
For 699152-130-R-J1-PDC complex spheroid growth, give viability, T/C of the listed molecule: Nc1ccccc1NC(=O)c1ccc(CNC(=O)OCc2cccnc2)cc1 + Cc1ccccc1N=Nc1ccc(NC(=O)c2ccnn2C)c(C)c1
89.5%

Hello, the source for this data is PubChem BioAssay AID1919001, in case you need it.
